Listed below: IC50 values for each entry.
Procedure text: Inhibition of CAMK2 assessed as level of ATP utilized by luciferase-based bioluminescence assay

Some molecules with known IC50 results, for comparison:
O=C(O)COc1c(-c2ccc(O)c(O)c2)oc2cc(O)cc(O)c2c1=O	> 100 µM
COc1ccc(-c2oc3cc(O)cc(O)c3c(=O)c2O)cc1O	16.4 µM
COC(=O)COc1cc(O)cc2oc(-c3ccc(O)c(O)c3)c(O)c(=O)c12	69 µM

Query: Please indicate IC50 recorded for COc1cc(O)cc2oc(-c3ccc(O)c(O)c3)c(O)c(=O)c12
Response: 4 µM

Query: Supply measured IC50 of COc1cc(-c2oc3cc(O)cc(O)c3c(=O)c2O)ccc1O in your reply.
Response: 0.91 µM

Query: Please list IC50 recorded for the molecule COC(=O)COc1cc(O)c2c(=O)c(O)c(-c3ccc(O)c(O)c3)oc2c1
Response: 9.1 µM

Query: For the molecule O=C(O)COc1cc(O)c2c(=O)c(O)c(-c3ccc(O)c(O)c3)oc2c1 , give its measured IC50 value.
Response: 9.3 µM

Query: Return IC50 (reported value) for this molecule: COc1c(-c2ccc(O)c(O)c2)oc2cc(O)cc(O)c2c1=O
Response: > 100 µM

Query: Could you please provide reported IC50 for COC(=O)COc1cc(-c2oc3cc(O)cc(O)c3c(=O)c2O)ccc1O ? Thanks!
Response: 6.3 µM

Query: Assign IC50 to the following record: O=c1c(O)c(-c2ccc(O)c(O)c2)oc2cc(O)cc(O)c12
Response: 3.3 µM

Query: Answer with the recorded IC50 of COc1cc(O)c2c(=O)c(O)c(-c3ccc(O)c(O)c3)oc2c1 only.
Response: 8.9 µM

---

Procedure text: Inhibition of CK2 assessed as level of ATP utilized by luciferase-based bioluminescence assay
Measured attribute: pIC50
# pIC50 is unitless: minus log10 of the molar concentration; print number only

Query: Complete the entry with pIC50 for O=c1c(O)c(-c2ccc(O)c(O)c2)oc2cc(O)cc(O)c12
Response: 5.25

---

Assayed system: UniProtKB P04792
Procedure text: Enhancement of HSP27 Ser78 phosphorylation in human HeLa cells at 50 ug/mL treated for 1 hr
Assay type: cell-based
Active and inactive are the calls of the source. The calls are words filed in the database; no cut-off is given here.
Tick one outcome: active, inactive

O=C(O)COc1cc(O)c2c(=O)c(O)c(-c3ccc(O)c(O)c3)oc2c1	inactive

Query: Record lookup: outcome of this test for COC(=O)COc1cc(-c2oc3cc(O)cc(O)c3c(=O)c2O)ccc1O ?
Response: inactive

Query: For COc1ccc(-c2oc3cc(O)cc(O)c3c(=O)c2O)cc1O , what call appears in the results of this test?
Response: inactive

Query: // outcome(item) with item = COc1cc(O)c2c(=O)c(O)c(-c3ccc(O)c(O)c3)oc2c1
Response: active

Query: For COC(=O)COc1cc(O)c2c(=O)c(O)c(-c3ccc(O)c(O)c3)oc2c1 , what call appears in the results of this test?
Response: active

Query: Name the outcome recorded for COc1cc(-c2oc3cc(O)cc(O)c3c(=O)c2O)ccc1O in the assay.
Response: inactive

Query: Outcome logged for O=C(O)COc1c(-c2ccc(O)c(O)c2)oc2cc(O)cc(O)c2c1=O in this assay:
Response: inactive

---

Tested on: Jurkat
Procedure text: Inhibition of heat-induced HSP70 expression in human Jurkat cells at 50 ug/mL treated for 1 hr before heat induction by Western blot
Type: functional, cell-based
Activity calls are given as the source filed them. The rule behind the calls is not given here.
Measured attribute: Activity

Consider the following illustrative entries.
COc1cc(O)cc2oc(-c3ccc(O)c(O)c3)c(O)c(=O)c12	inactive
COc1cc(-c2oc3cc(O)cc(O)c3c(=O)c2O)ccc1O [ISORHAMNETIN]	Active
COC(=O)COc1cc(O)c2c(=O)c(O)c(-c3ccc(O)c(O)c3)oc2c1	Active
COC(=O)COc1cc(O)cc2oc(-c3ccc(O)c(O)c3)c(O)c(=O)c12	inactive
O=C(O)COc1c(-c2ccc(O)c(O)c2)oc2cc(O)cc(O)c2c1=O	inactive
COC(=O)COc1cc(-c2oc3cc(O)cc(O)c3c(=O)c2O)ccc1O	Active
COc1cc(O)c2c(=O)c(O)c(-c3ccc(O)c(O)c3)oc2c1 [RHAMNETIN]	Active
O=C(O)COc1cc(O)c2c(=O)c(O)c(-c3ccc(O)c(O)c3)oc2c1	inactive

Query: Provide measured Activity value, entry: O=c1c(O)c(-c2ccc(O)c(O)c2)oc2cc(O)cc(O)c12 [QUERCETIN]
Response: Active

Query: Give reported Activity value for COc1c(-c2ccc(O)c(O)c2)oc2cc(O)cc(O)c2c1=O [3-O-METHYLQUERCETIN]
Response: inactive

---

Procedure text: Inhibition of CK2 assessed as level of ATP utilized by luciferase-based bioluminescence assay
Measured attribute: pIC50
pIC50 (log units): -log10 of the concentration in mol/L.

Guide cases for pIC50, answers given:
COC(=O)COc1cc(-c2oc3cc(O)cc(O)c3c(=O)c2O)ccc1O	4.28
COc1c(-c2ccc(O)c(O)c2)oc2cc(O)cc(O)c2c1=O	6.08
O=C(O)COc1cc(O)c2c(=O)c(O)c(-c3ccc(O)c(O)c3)oc2c1	5.01
COc1cc(-c2oc3cc(O)cc(O)c3c(=O)c2O)ccc1O	6.30
COC(=O)COc1cc(O)c2c(=O)c(O)c(-c3ccc(O)c(O)c3)oc2c1	6.07
O=C(O)COc1c(-c2ccc(O)c(O)c2)oc2cc(O)cc(O)c2c1=O	5.61

# next molecule below
Query: Write down pIC50 measured for item COc1cc(O)c2c(=O)c(O)c(-c3ccc(O)c(O)c3)oc2c1
Response: 5.01

---

Assayed system: Heat shock protein beta-1 (Homo sapiens) (UniProt P04792)
Sequence (P04792 whole entry): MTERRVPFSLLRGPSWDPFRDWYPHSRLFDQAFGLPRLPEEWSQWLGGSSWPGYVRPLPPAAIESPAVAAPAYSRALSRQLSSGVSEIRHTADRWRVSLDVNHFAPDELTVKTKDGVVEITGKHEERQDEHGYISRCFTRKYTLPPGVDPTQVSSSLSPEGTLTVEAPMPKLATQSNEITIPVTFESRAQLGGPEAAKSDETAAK
Procedure text: Enhancement of HSP27 Ser78 phosphorylation in human HeLa cells at 50 ug/mL treated for 1 hr
Format: cell-based
Calls of active or inactive are those of the source. The calls are words filed in the database; no cut-off is given here.
Measured attribute: Activity

COc1cc(O)cc2oc(-c3ccc(O)c(O)c3)c(O)c(=O)c12	inactive
COc1c(-c2ccc(O)c(O)c2)oc2cc(O)cc(O)c2c1=O [3-O-METHYLQUERCETIN]	inactive
COC(=O)COc1cc(O)cc2oc(-c3ccc(O)c(O)c3)c(O)c(=O)c12	inactive

---

Procedure text: Inhibition of CK2 assessed as level of ATP utilized by luciferase-based bioluminescence assay
Measured attribute: IC50

Field: example entries. Status: answers known.
COc1cc(O)cc2oc(-c3ccc(O)c(O)c3)c(O)c(=O)c12	> 100 µM
COC(=O)COc1cc(O)cc2oc(-c3ccc(O)c(O)c3)c(O)c(=O)c12	> 100 µM

Please turn your attention to the following entry.
Query: For the compound COc1ccc(-c2oc3cc(O)cc(O)c3c(=O)c2O)cc1O [TAMARIXETIN] , give its reported IC50.
Response: > 100 µM
